Recorded TGI values for a group of compounds are listed next.
tested on: HT29 colon; assay: NCI tumour cell line growth inhibition, 48 h

# example entries with known answers
NC(=S)N/N=C1\CCCC\C1=C/c1ccccc1 : 50.3 µM
CC12CCC(=O)N1c1cccnc1N2 (configuration not stated) : > 100 µM
Cc1n[n+](Cc2ccccc2)c2sc(N)nn12 : > 100 µM
COc1ccc(/C=C/c2cnccn2)cc1OC : > 10 µM

Incoming: What value of TGI has been recorded for this entry: `COC(=O)c1c[nH]cc1CCCCc1c[nH]cc1C(=O)OC`
Outgoing: > 100 µM

Incoming: Fill blank: measured TGI of the compound CNC(C)[C@H]1CCC2C3CC=C4C(=O)[C@@H](NC(=O)C=C(C)C)CC[C@]4(C)C3CC[C@@]21C (some centres not stated) is ____.
Outgoing: 1.59 µM

Incoming: Any idea what TGI was measured for COc1ccc(C2(CC(C)C)CCN(S(=O)(=O)c3ccc(C)cc3)C2)cc1OC (configuration not stated) ?
Outgoing: > 100 µM

Incoming: Fill in the blank: the reported TGI of `NCCCOc1cc(Cl)ccc1NC(=O)c1cc2ccccc2cc1OCCCN` is ____.
Outgoing: 4.16 µM
